Origin of the recorded values: ChEMBL document CHEMBL3286189

Tested on: CCRF-CEM
Test: Cytostatic activity against human CEM cells assessed as inhibition of cell proliferation after 72 hrs by coulter counting analysis
Type: functional, cell-based
Conditions: Homo sapiens, CCRF-CEM, 72 h
pIC50: −log10 of the molar value.
Catalogue of pIC50 values
property_measured: pIC50

| compound | value |
| --- | --- |
| CCC(C)N(C(=O)[C@@H](NC(=O)OCc1ccccc1)[C@@H](C)CC)C1(C(=O)NCc2ccccc2)CCN(Cc2ccccc2)CC1 (some centres undefined) | 3.95 |
| CN(C)C(=O)C[C@H](NC(=O)OC(C)(C)C)C(=O)N(Cc1ccccc1)C1(C(=O)NCc2ccccc2)CCN(Cc2ccccc2)CC1 | 4.23 |
| CCC(C)N(C(=O)[C@@H](N)Cc1ccccc1)C1(C(=O)NCc2ccccc2)CCN(Cc2ccccc2)CC1 (some centres undefined) | 4.00 |
| COC(=O)C[C@H](NC(=O)OC(C)(C)C)C(=O)N(Cc1ccc(F)cc1)C1(C(=O)NCc2ccccc2)CCN(Cc2ccccc2)CC1 | 4.80 |

* * *

Catalogue of pIC50 values
System: CAKI-1
Assay: Cytostatic activity against human Caki1 cells assessed as inhibition of cell proliferation after 96 hrs by coulter counting analysis
Assay type: functional, cell-based
Conditions: CAKI-1, 96 h
pIC50: −log10 of the molar value.

| molecule | pIC50 |
| --- | --- |
| CC(C)(C)OC(=O)N[C@@H](Cc1ccccc1)C(=O)N(Cc1ccccc1)C1(C(=O)NCc2ccccc2)CCN(Cc2ccccc2)CC1 | 5.02 |
| CCC(C)N(C(=O)[C@H](CC(=O)OC)NC(=O)OCc1ccccc1)C1(C(=O)NCc2ccccc2)CCN(Cc2ccccc2)CC1 (some centres undefined) | 5.06 |
| C=CCOC(=O)N1CCC(C(=O)NCc2ccccc2)(N(Cc2ccccc2)C(=O)[C@H](Cc2ccccc2)NC(=O)OC(C)(C)C)CC1 | 4.92 |
| CC(C)(C)OC(=O)N[C@@H](Cc1c[nH]c2ccccc12)C(=O)N(Cc1ccccc1)C1(C(=O)NCc2ccccc2)CCN(Cc2ccccc2)CC1 | 4.85 |

* * *

System: HeLa
Assay: Cytostatic activity against human HeLa cells assessed as inhibition of cell proliferation after 72 hrs by coulter counting analysis
Assay type: functional, cell-based
Conditions: Homo sapiens, HeLa, 72 h
pIC50: −log10 of the molar value.

| compound | bound_sign | pIC50 |
| --- | --- | --- |
| COC(=O)C[C@H](NC(=O)OC(C)(C)C)C(=O)NC1(C(=O)NCc2ccccc2)CCN(Cc2ccccc2)CC1 | = | 4.62 |
| COC(=O)C[C@H](NC(=O)OCc1ccccc1)C(=O)N(C1CC1)C1(C(=O)NCc2ccccc2)CCN(Cc2ccccc2)CC1 | = | 5.33 |
| COC(=O)C[C@H](NC(=O)OC(C)(C)C)C(=O)N(Cc1cc(OC)c(OC)c(OC)c1)C1(C(=O)NCc2ccccc2)CCN(Cc2ccccc2)CC1 | = | 4.66 |
| C=CCOC(=O)N1CCC(C(=O)NCc2ccccc2)(N(Cc2ccccc2)C(=O)[C@H](Cc2ccccc2)NC(=O)OC(C)(C)C)CC1 | = | 5.15 |
| CCC(C)N(C(=O)[C@@H](N)CC(=O)OC)C1(C(=O)NCc2ccccc2)CCN(Cc2ccccc2)CC1 (some centres undefined) | < | 3.60 |
| CC(C)(C)NC(=O)C1(N(C(=O)[C@H](Cc2ccccc2)NC(=O)OC(C)(C)C)C2CC2)CCN(C(=O)OC(C)(C)C)CC1 | = | 4.70 |
| CC[C@H](C)[C@H](NC(=O)OCc1ccccc1)C(=O)N(C1CC1)C1(C(=O)NCc2ccccc2)CCN(Cc2ccccc2)CC1 | = | 4.52 |
| CC(C)(C)NC(=O)C1(N(C(=O)[C@H](Cc2ccccc2)NC(=O)OCc2ccccc2)C2CC2)CCN(Cc2ccccc2)CC1 | = | 4.59 |
| COC(=O)C[C@H](NC(=O)OC(C)(C)C)C(=O)N(CCNc1ccccc1)C1(C(=O)NCc2ccccc2)CCN(Cc2ccccc2)CC1 | = | 4.68 |
| CCC(C)N(C(=O)[C@H](CC(=O)OC)NC(=O)OCc1ccccc1)C1(C(=O)NCc2ccccc2)CCN(Cc2ccccc2)CC1 (some centres undefined) | = | 5.37 |
| CC[C@H](C)[C@H](NC(=O)OC(C)(C)C)C(=O)N(Cc1ccccc1)C1(C(=O)NCc2ccccc2)CCN(Cc2ccccc2)CC1 | = | 5.00 |
| COC(=O)C[C@H](N)C(=O)N(Cc1ccccc1)C1(C(=O)NCc2ccccc2)CCN(Cc2ccccc2)CC1 | = | 4.00 |
| COC(=O)C[C@H](NC(=O)OC(C)(C)C)C(=O)N(Cc1ccccc1)C1(C(=O)NCc2ccccc2)CCN(C(=O)OC(C)(C)C)CC1 | = | 4.62 |
| COC(=O)C[C@H](NC(=O)OC(C)(C)C)C(=O)N(Cc1ccccc1)C1(C(=O)NC(C)(C)C)CCN(Cc2ccccc2)CC1 | = | 4.68 |
| O=C(N[C@@H](Cc1ccccc1)C(=O)N(Cc1ccccc1)C1(C(=O)NCc2ccccc2)CCN(Cc2ccccc2)CC1)Oc1ccccc1 | = | 4.77 |
| CC(C)(C)NC(=O)C1(N(C(=O)[C@H](Cc2ccccc2)NC(=O)OCc2ccccc2)C2CC2)CCN(C(=O)OC(C)(C)C)CC1 | = | 3.83 |
| CC(C)(C)OC(=O)N[C@@H](CC(N)=O)C(=O)N(Cc1ccccc1)C1(C(=O)NCc2ccccc2)CCN(Cc2ccccc2)CC1 | = | 4.60 |
| COC(=O)C[C@H](NC(=O)OC(C)(C)C)C(=O)N(Cc1ccccc1)C1(C(=O)NCc2ccccc2)CCNCC1 | < | 3.78 |
| CCC(C)N(C(=O)[C@@H](N)CC(=O)OC)C1(C(=O)NCc2ccccc2)CCNCC1 (some centres undefined) | < | 3.60 |
| CCC(C)N(C(=O)[C@@H](NC(=O)OCc1ccccc1)[C@@H](C)CC)C1(C(=O)NCc2ccccc2)CCN(Cc2ccccc2)CC1 (some centres undefined) | = | 3.92 |
| CC(C)(C)OC(=O)N[C@@H](Cc1ccccc1)C(=O)N(Cc1ccccc1)C1(C(=O)NCc2ccccc2)CCN(C(=O)OC(C)(C)C)CC1 | = | 4.89 |
| CCC(C)N(C(=O)[C@H](CC(=O)OC)NC(=O)OC(C)(C)C)C1(C(=O)NCc2ccccc2)CCN(Cc2ccccc2)CC1 (some centres undefined) | = | 4.80 |
| COC(=O)CNC(=O)C1(N(Cc2ccccc2)C(=O)[C@H](CC(=O)OC)NC(=O)OC(C)(C)C)CCN(Cc2ccccc2)CC1 | = | 3.64 |
| CC(C)(C)OC(=O)N[C@@H](CC(=O)O)C(=O)N(Cc1ccccc1)C1(C(=O)NCc2ccccc2)CCN(Cc2ccccc2)CC1 | < | 3.70 |
| CC(C)(C)OC(=O)N[C@@H](Cc1ccc(O)cc1)C(=O)N(Cc1ccccc1)C1(C(=O)NCc2ccccc2)CCN(Cc2ccccc2)CC1 | = | 4.64 |
| CCCCNC(=O)C1(N(Cc2ccccc2)C(=O)[C@H](CC(=O)OC)NC(=O)OC(C)(C)C)CCN(Cc2ccccc2)CC1 | = | 4.44 |
| C=CCOC(=O)N1CCC(C(=O)NCc2ccccc2)(N(Cc2ccccc2)C(=O)[C@@H](N)Cc2ccccc2)CC1 | = | 4.20 |
| COC(=O)C[C@H](NC(=O)OC(C)(C)C)C(=O)N(Cc1ccccc1)C1(C(=O)NC2CCCCC2)CCN(Cc2ccccc2)CC1 | = | 4.68 |
| CN(C)C(=O)C[C@H](NC(=O)OC(C)(C)C)C(=O)N(Cc1ccccc1)C1(C(=O)NCc2ccccc2)CCN(Cc2ccccc2)CC1 | = | 4.17 |
